target: OT-1 T-cell receptor (TCR) on OT-1 CD8+ T cells; assay: cell-based or functional assay
Observed Property: mechanical sampling factor (fold)

- Binder: "SIINFEKL (peptide-MHC, part only; not given: MHC molecule, part only) [antigenic N4 pMHC (peptide SIINFEKL, SEQ ID NO: 22)]"
  Measure Unit: "fold"
  mechanical sampling factor: 165

a = SIIGFEKL (peptide-MHC, part only; not given: MHC molecule, part only) [mutant pMHC G4 (SIIGFEKL, SEQ ID NO: 24)]
b = SIIVFEKL (peptide-MHC, part only; not given: MHC molecule, part only) [pMHC V4 (SIIXFEKL, SEQ ID NO: 23, X=V)]
Which item exceeds the other in mechanical sampling factor, a or b ? Provide the label of your selected option as the answer.
b
